Would you mind telling me the reported pK of each entry?
assay: Binding affinity for alpha 1a adrenoceptor
Respond using a number only.

Query: What does the data say about its pK? Entry: COC(=O)C1=C(C)NC(C)=C(C(=O)NCCCN2CCC(c3ccccc3)(c3ccccc3)CC2)C1c1ccc([N+](=O)[O-])cc1 (centres undefined)
Reply: 9.64

Query: Also COc1cc2c(cc1O)C1Cc3ccc(OC)c(O)c3CN1CC2 (centres undefined) ?
Reply: 6.21

Query: Also COc1cccc(OC)c1OCCNCC1COc2ccccc2O1 (centres undefined) ?
Reply: 9.8

Query: Also `Cc1ccc(N(CC2=NCCN2)c2cccc(O)c2)cc1` ?
Reply: 8.8

Query: Also `C[C@H](Cc1cc2c(c(C(N)=O)c1)N(CCCO)CC2)NCCOc1ccccc1OCC(F)(F)F` ?
Reply: 10.4

Query: Also `COc1c(C)c(C)c(O)c(C)c1CN(C)CCOc1cc(C)c(O)cc1C(C)C` ?
Reply: 9.4

Query: Also `COc1cc2c(cc1OC)CN(c1cc(N)c3cc(OC)c(OC)cc3n1)CC2` ?
Reply: 10.4

Query: Also `COC(=O)C1=C(C)NC(C)=C(C(=O)OCCCN2CCC(c3ccccc3)(c3ccccc3)CC2)[C@H]1c1cccc([N+](=O)[O-])c1` ?
Reply: 9.82

Query: Also `COc1ccccc1N1CCN(CCN2C(=O)CC3(CCCC3)CC2=O)CC1` ?
Reply: 6.6

###

experiment: Binding affinity for alpha 1b adrenoceptor
Would you mind telling me the reported pK of each entry?
Respond using a number only.

Query: What does the data say about its pK? Entry: COC(=O)C1=C(C)NC(C)=C(C(=O)NCCCN2CCC(c3ccccc3)(c3ccccc3)CC2)C1c1ccc([N+](=O)[O-])cc1 (stereo not given)
Reply: 7.89

Query: Also `CC(C)(Cc1c[nH]c2ccc(Cl)cc12)NCCOc1ccccc1OCC1CC1` ?
Reply: 7.8

Query: Also `C=Cc1sc2ccc(Cl)c3c2c1CN(C)CC3` ?
Reply: 7.2

Query: Also `O=C(NC1CCN(CCc2c[nH]c3ccccc23)CC1)c1ccccc1` ?
Reply: 7.4

Query: Also `COc1cc2nc(N3CCN(C(=O)COc4c(OC)cccc4C(C)C)CC3)nc(N)c2cc1OC` ?
Reply: 9.52

Query: Also COc1cc2nc(N3CCN(C(=O)C4COc5ccccc5O4)CC3)nc(N)c2cc1OC (stereo not given) ?
Reply: 9

Query: Also `COc1ccccc1N1CCN(CCN(C(=O)C2CCCCC2)c2ccccn2)CC1` ?
Reply: 6.73

Query: Also COc1cccc(OC)c1OCCNCC1CSc2ccccc2O1 (stereo not given) ?
Reply: 8.4

Query: Also `Cc1ccc(N(CC2=NCCN2)c2cccc(O)c2)cc1` ?
Reply: 8.1

Query: Also `COc1ccccc1N1CCN(CCN2C(=O)CC3(CCCC3)CC2=O)CC1` ?
Reply: 6.2

Query: Also `CCCC(=O)N1CCCN(c2nc(N)c3cc(OC)c(OC)cc3n2)CC1` ?
Reply: 9

Query: Also `Cc1c[nH]c(=O)n(CCCN2CCN(c3ccc(F)cc3OCC(F)(F)F)CC2)c1=O` ?
Reply: 7.1

Query: Also `CC1=C(C(N)=O)[C@H](c2ccc([N+](=O)[O-])cc2)C(C(=O)NCCCCN2CCC(c3ccccc3)(c3ccccc3)CC2)=C(C)N1` ?
Reply: 6.48

Query: Also `COc1ccccc1N1CCN(CCCNc2c(C)c(=O)n(C)c(=O)n2C)CC1` ?
Reply: 7.4

Query: Also `COc1ccccc1N1CCN(CCCCN2C(=O)c3ccccc3C2=O)CC1` ?
Reply: 7.82

Query: Also `COc1cccc2c1CC[C@H]1CN(CCn3c(=O)[nH]c4c(sc5cccnc54)c3=O)C[C@@H]21` ?
Reply: 8.16

Query: Also `C[C@H](Cc1cc2c(c(C(N)=O)c1)N(CCCO)CC2)NCCOc1ccccc1OCC(F)(F)F` ?
Reply: 7.7

Query: Also `C[C@H](CN1CCN(c2cc(F)c(F)cc2F)CC1)N1C(=O)CC2(CCCC2)CC1=O` ?
Reply: 6.72

Query: Also `CCC1=C(C(N)=O)[C@H](c2ccc([N+](=O)[O-])cc2)C(C(=O)NCCCN2CCC(c3ccccc3)(c3ccccc3)CC2)=C(COCCN)N1` ?
Reply: 6.49

Query: Also `COc1c(C)c(C)c(O)c(C)c1CN(C)CCOc1cc(C)c(O)cc1C(C)C` ?
Reply: 8.92
